Entry source: PubChem BioAssay AID1259343

Give measured inhibition for each item. Keep answers brief.
# assay_protocol: Mycobacterium tuberculosis growth inhibition, primary screen (AID 1259343)
# run_conditions: at 10 µM, hits give high values
The campaign covered roughly 6,200 compounds. About 2,900 (47%) were called active. So high a share suggests a set chosen from earlier hits. Some of the results follow.
// return numeric value only (unit: %, not printed)

Field inhibition (entry c1csc(-c2nc(COc3ccc4c(c3)CCC4)co2)c1 ) reads -21.4

Field inhibition (entry Nc1ncc(Cc2ccc(F)c(Cl)c2)s1 ) reads -17.6

Field inhibition (entry Cc1ccc(-c2csc(C=Cc3c(C)noc3C)n2)cc1 ) reads 43.6

Field inhibition (entry N#CC(C#N)=Cc1ccc(-c2ccc(F)cc2)o1 ) reads -20.9

Field inhibition (entry Cc1cccc2sc(NC(=O)C3CC4CCC3C4)nc12 (configuration not stated) ) reads 85.8

Field inhibition (entry Cc1nc2ccccc2c(=O)n1NC(=S)NC(=O)c1ccc(Br)cc1 ) reads 40.8

Field inhibition (entry Cc1ccc(-c2nc(COc3ccc(C)cn3)co2)cc1 ) reads 58.5

Field inhibition (entry CC(C)Oc1ccc2c(=O)cc(-c3ccccc3)oc2c1 ) reads 58.7

Field inhibition (entry Cn1ccsc1=NC(=O)CCN1c2ccccc2Sc2ccccc21 ) reads -5.61

Field inhibition (entry CCc1ccc(NC(=O)c2ccc(CN3CCCC3=O)cc2)cc1 ) reads 73.2

Field inhibition (entry CC(C)(C)C(=O)NC(=S)NC1=CC2N=C(c3ccncc3)OC2C=C1 (configuration not stated) ) reads 54.2

Field inhibition (entry CN(CCOc1ccccc1)C(=O)c1cc(COc2c(F)cccc2F)on1 ) reads 84.2

Field inhibition (entry Nc1ncc(Cc2ccc(Br)cc2)s1 ) reads 46.1

Field inhibition (entry Cc1oc(-c2ccc(F)cc2F)nc1CN(C)Cc1ccccc1C(F)(F)F ) reads 30.1

Field inhibition (entry O=C(Nc1ncc(Cc2ccc(Cl)cc2)s1)c1cccs1 ) reads 53.4

Field inhibition (entry N=c1oc2c([N+](=O)[O-])cc(Cl)cc2cc1-c1nc2ccccc2s1 ) reads -34.4

Field inhibition (entry CCOc1ccccc1NC(=O)N1CCN(CCCOC(c2ccc(Cl)cc2)c2ccc(Cl)cc2)CC1 ) reads 16.6

Field inhibition (entry O=C1c2ccccc2S(=O)(=O)N1c1ccc(Cl)cc1 ) reads 60.5

Field inhibition (entry O=C(CC1C=CCC1)Nc1nc2c(Cl)c(Cl)ccc2s1 (configuration not stated) ) reads 48.5

Field inhibition (entry N#CC(C#N)=Cc1ccc(-c2ccc(SC(F)F)cc2)o1 ) reads -10.2

Field inhibition (entry O=C(Nc1ccc(-n2cccn2)nc1)C1CC(c2cccc(F)c2)=NO1 (configuration not stated) ) reads 14.1

Field inhibition (entry CCc1cnc(-c2cccc(O)c2)nc1 ) reads 87.9

Field inhibition (entry CC(NC(=O)C1CC(c2cccc(F)c2)=NO1)c1ccc(F)cc1F (configuration not stated) ) reads 84.1

Field inhibition (entry CCn1nnc2c(=O)n(CC(=O)c3ccc(OC)cc3)cnc21 ) reads 77.2

Field inhibition (entry CCC(C)(C)C1CCc2sc3ncnc(NCCN4CCOCC4)c3c2C1 (configuration not stated) ) reads 85

Field inhibition (entry CCc1ccc(NC(=O)C(C)n2cc(C(F)(F)F)ccc2=O)cc1 (configuration not stated) ) reads 49.6

Field inhibition (entry Clc1ccc(-c2nc(NCCN3CCOCC3)c3ccc(Cl)cc3n2)cc1 ) reads 47.7

Field inhibition (entry COc1ccc(C(=O)NC(C)c2ccc(Cl)cc2Cl)cc1 (configuration not stated) ) reads 55.6

Field inhibition (entry O[N+]1=CC=CCC1=S.On1ccccc1=S.[Zn] ) reads 102

Field inhibition (entry O=C(Nc1ccc2ccccc2n1)C1CC2CCC1C2 (configuration not stated) ) reads 45.8

Field inhibition (entry O=S(=O)(NC1CCN(C2CC2)CC1)c1cc(Cl)cc(Cl)c1 ) reads 4.16

Field inhibition (entry CC(C)c1cc(C(=O)N2C[C@@H]3[C@H](C2)[C@H]2CC[C@@H]3O2)cs1 ) reads -8.56

Field inhibition (entry O=C(NC(C1CC1)C1CC1)C1CC(c2ccc(Cl)s2)=NO1 (configuration not stated) ) reads -31.9

Field inhibition (entry Cc1[nH]n(-c2cccc(Cl)c2)c(=O)c1C=NCCc1ccccc1 ) reads 72.9

Field inhibition (entry COc1cc(C)c2c(=O)cc(-c3ccccc3)oc2c1 ) reads 47.7

Field inhibition (entry O=C(NCC1CCCCO1)c1cc(COc2c(F)cccc2F)on1 (configuration not stated) ) reads 65.1

Field inhibition (entry COc1cccc(C2c3c(oc4cc(C)c(C)cc4c3=O)C(=O)N2c2nccs2)c1OC (configuration not stated) ) reads -18.6

Field inhibition (entry Cc1nc(CNS(=O)(=O)c2c(C)c(C)c(C)c(C)c2C)cs1 ) reads 6.48

Field inhibition (entry O=C(NC1CCS(=O)(=O)C1)c1ccc(Br)o1 (configuration not stated) ) reads 10.7

Field inhibition (entry Cc1oc2cc(OC(C)C)ccc2c(=O)c1Oc1ccccc1 ) reads 8.96

Field inhibition (entry NC(=S)NN=Cc1ccc(-c2ccc(SC(F)F)cc2)o1 ) reads 103

Field inhibition (entry O=C1NC(=S)C(=Cc2ccc(-c3ccc(F)cc3)o2)S1 ) reads 97.6

Field inhibition (entry CCCc1nc(N2C[C@@H]3[C@H](C2)[C@H]2CC[C@@H]3O2)no1 ) reads -30.4

Field inhibition (entry O=[N+]([O-])c1ccc(C(O)CNC(=S)NCc2ccc3c(c2)OCO3)cc1 (configuration not stated) ) reads 89.8

Field inhibition (entry CC(=O)N1CCC(NS(=O)(=O)c2ccc3c(c2)CCCC3)CC1 ) reads 86.8

Field inhibition (entry Cc1ccc(OCc2cc(C(=O)N(C)CCc3ccccc3)no2)cc1C ) reads 93.7

Field inhibition (entry Cc1nn(C)c(Cl)c1CNc1ccccc1 ) reads 5.19
